Cited source: ChEMBL document CHEMBL3885861

organism: Rattus norvegicus; experiment: Open TG-GATES - Regimen: Daily Repeat; assay type: toxicity, organism-based, Sprague-Dawley; parameters: regimen Daily Repeat, gender Male, age 6 weeks; settings: in vivo, po, 1000 mg/kg, 72 h, tissue Plasma, route gavage, dose level High, time 3 day
Measured DBIL accompanies every entry in the list below.
Respond with the bare value in mg/dL.

Please look up its DBIL: CCOc1ccc(NC(C)=O)cc1 [PHENACETIN]
0.024

Entry under review: Cc1nnc2n1-c1ccc(Cl)cc1C(c1ccccc1Cl)=NC2 [TRIAZOLAM] . Reported DBIL?
0.016

# input compound: CN/C(=N/CCSCc1nc[nH]c1C)NC#N [CIMETIDINE] ; wanted: its DBIL
0.1

# DBIL lookup, item O=C(OC[C@H]1O[C@@H](OC(=O)c2cc(O)c(O)c(OC(=O)c3cc(O)c(O)c(O)c3)c2)[C@H](OC(=O)c2cc(O)c(O)c(OC(=O)c3cc(O)c(O)c(O)c3)c2)[C@@H](OC(=O)c2cc(O)c(O)c(OC(=O)c3cc(O)c(O)c(O)c3)c2)[C@@H]1OC(=O)c1cc(O)c(O)c(OC(=O)c2cc(O)c(O)c(O)c2)c1)c1cc(O)c(O)c(OC(=O)c2cc(O)c(O)c(O)c2)c1 [TANNIC ACID]
0.004

Can you look up the measured DBIL of COC(=O)C1=C(C)NC(C)=C(C(=O)OC)C1c1ccccc1[N+](=O)[O-] [NIFEDIPINE] for me?
0.016

For the compound CNC(=C[N+](=O)[O-])NCCSCc1ccc(CN(C)C)o1 [RANITIDINE] , what DBIL is on record?
0.098

====

// reported Plat for each item listed
species: Rattus norvegicus; assay: Open TG-GATES - Regimen: Single; format: toxicity, organism-based, Sprague-Dawley; design: regimen Single, gender Male, age 6 weeks; settings: in vivo, po, 100 mg/kg, 3 h, tissue Blood, route gavage, dose level Low
# value in x10_4/uL; strip the unit string

Some compounds with known Plat results, for comparison:
- CN/C(=N/CCSCc1nc[nH]c1C)NC#N: 127.8
- COC(=O)C1=C(C)NC(C)=C(C(=O)OC)C1c1ccccc1[N+](=O)[O-]: 123.6

Find the recorded Plat belonging to O=C(OC[C@H]1O[C@@H](OC(=O)c2cc(O)c(O)c(OC(=O)c3cc(O)c(O)c(O)c3)c2)[C@H](OC(=O)c2cc(O)c(O)c(OC(=O)c3cc(O)c(O)c(O)c3)c2)[C@@H](OC(=O)c2cc(O)c(O)c(OC(=O)c3cc(O)c(O)c(O)c3)c2)[C@@H]1OC(=O)c1cc(O)c(O)c(OC(=O)c2cc(O)c(O)c(O)c2)c1)c1cc(O)c(O)c(OC(=O)c2cc(O)c(O)c(O)c2)c1 and report it.
112.2

Please look up its Plat: CNC(=C[N+](=O)[O-])NCCSCc1ccc(CN(C)C)o1
118

Record request: Plat value, item Cc1nnc2n1-c1ccc(Cl)cc1C(c1ccccc1Cl)=NC2
121.2

====

species: Rattus norvegicus; assay: Open TG-GATES - Regimen: Daily Repeat; assay type: toxicity, organism-based, Sprague-Dawley; parameters: regimen Daily Repeat, gender Male, age 6 weeks; settings: in vivo, po, 100 mg/kg, […], tissue Plasma, route gavage, dose level Low, time 28 day
Measured A/G by item
Kindly provide the number alone.

These recorded examples may help you get a feel for the data.
- CN/C(=N/CCSCc1nc[nH]c1C)NC#N: 1.4
- O=C(OC[C@H]1O[C@@H](OC(=O)c2cc(O)c(O)c(OC(=O)c3cc(O)c(O)c(O)c3)c2)[C@H](OC(=O)c2cc(O)c(O)c(OC(=O)c3cc(O)c(O)c(O)c3)c2)[C@@H](OC(=O)c2cc(O)c(O)c(OC(=O)c3cc(O)c(O)c(O)c3)c2)[C@@H]1OC(=O)c1cc(O)c(O)c(OC(=O)c2cc(O)c(O)c(O)c2)c1)c1cc(O)c(O)c(OC(=O)c2cc(O)c(O)c(O)c2)c1: 1.6
- CNC(=C[N+](=O)[O-])NCCSCc1ccc(CN(C)C)o1: 1.3

// A/G lookup, key: Cc1nnc2n1-c1ccc(Cl)cc1C(c1ccccc1Cl)=NC2
0.8
